B1: BBSome complex member BBS2 (Homo sapiens), Q9BXC9 (parent)
chain: MLLPVFTLKLRHKISPRMVAIGRYDGTHPCLAAATQTGKVFIHNPHTRNQHVSASRVFQSPLESDVSLLSINQAVSCLTAGVLNPELGYDALLVGTQTNLLAYDVYNNSDLFYREVADGANAIVLGTLGDISSPLAIIGGNCALQGFNHEGSDLFWTVTGDNVNSLALCDFDGDGKKELLVGSEDFDIRVFKEDEIVAEMTETEIVTSLCPMYGSRFGYALSNGTVGVYDKTSRYWRIKSKNHAMSIHAFDLNSDGVNELITGWSNGKVDARSDRTGEVIFKDNFSSAIAGVVEGDYRMDGHIQLICCSVDGEIRGYLPGTAEMRGNLMDTSAEQDLIRELSQKKQNLLLELRNYEENAKAELASPLNEADGHRGIIPANTRLHTTLSVSLGNETQTAHTELRISTSNDTIIRAVLIFAEGIFTGESHVVHPSIHNLSSSICIPIVPPKDVPVDLHLKAFVGYRSSTQFHVFESTRQLPRFSMYALTSLDPASEPISYVNFTIAERAQRVVVWLGQNFLLPEDTHIQNAPFQVCFTSLRNGGHLHIKIKLSGEITINTDDIDLAGDIIQSMASFFAIEDLQVEADFPVYFEELRKVLVKVDEYHSVHQKLSADMADHSNLIRSLLVGAEDARLMRDMKTMKSRYMELYDLNRDLLNGYKIRCNNHTELLGNLKAVNQAIQRAGRLRVGKPKNQVITACRDAIRSNNINTLFKIMRVGTASS
partner: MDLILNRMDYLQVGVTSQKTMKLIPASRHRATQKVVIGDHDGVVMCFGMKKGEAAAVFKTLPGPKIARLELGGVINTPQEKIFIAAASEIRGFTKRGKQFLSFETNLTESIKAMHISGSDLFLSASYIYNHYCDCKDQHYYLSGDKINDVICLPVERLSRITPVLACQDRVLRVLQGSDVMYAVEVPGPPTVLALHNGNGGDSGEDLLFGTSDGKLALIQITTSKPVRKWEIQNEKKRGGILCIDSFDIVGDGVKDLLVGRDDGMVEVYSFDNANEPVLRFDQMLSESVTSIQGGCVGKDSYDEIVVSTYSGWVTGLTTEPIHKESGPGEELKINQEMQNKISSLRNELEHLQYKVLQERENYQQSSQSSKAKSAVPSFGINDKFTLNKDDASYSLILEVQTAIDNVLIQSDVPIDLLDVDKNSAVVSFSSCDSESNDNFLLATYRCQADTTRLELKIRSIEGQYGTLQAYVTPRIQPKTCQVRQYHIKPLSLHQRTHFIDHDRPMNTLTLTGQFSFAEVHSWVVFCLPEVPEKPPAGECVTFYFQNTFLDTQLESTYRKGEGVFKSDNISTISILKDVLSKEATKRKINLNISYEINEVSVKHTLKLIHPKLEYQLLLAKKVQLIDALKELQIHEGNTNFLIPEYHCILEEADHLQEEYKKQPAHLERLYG

Variants of: B1
Conditions used: with BBS7, Q8IWZ6-2
Endpoint name: effect of a mutation on the interaction

Query :: Consider the variant D616K and give its recorded effect of a mutation on the interaction.
Result :: with no effect

Query :: Consider the variant I707A and give its recorded effect of a mutation on the interaction.
Result :: with no effect

Query :: Consider the variant P587K and give its recorded effect of a mutation on the interaction.
Result :: with no effect

Query :: Consider the variant L710E and give its recorded effect of a mutation on the interaction.
Result :: with no effect

Query :: Consider the variant T397K and give its recorded effect of a mutation on the interaction.
Result :: with no effect

I need effect of a mutation on the interaction for every entry listed below, if you could help.
1. V598K
2. G717A
3. T558A
4. F590A
5. Q581E

Result ::
1. with no effect
2. with no effect
3. with no effect
4. with no effect
5. with no effect
